# assayed target: T1, recombinant hIL4R-his (human IL-4R extracellular domain with C-terminal His tag) (human (Homo sapiens), UniProt P24394 26-232)
# T1 construct: The tag was added at the C-terminus; The protein was expressed in HEK293 cells; also called huIL4R
# T1 sequence: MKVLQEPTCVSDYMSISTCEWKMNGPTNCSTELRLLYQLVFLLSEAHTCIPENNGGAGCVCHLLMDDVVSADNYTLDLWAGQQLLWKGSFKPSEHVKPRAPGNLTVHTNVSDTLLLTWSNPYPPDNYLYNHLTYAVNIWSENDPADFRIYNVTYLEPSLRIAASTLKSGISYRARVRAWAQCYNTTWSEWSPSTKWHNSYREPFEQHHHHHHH
# assay notes: SPR Biacore X100, antibody captured by anti-human Fc, IL4R-his as analyte, 25 C
Mark each entry T if its Kd sits below 0.6 nM, and F for all others.

>>> qualitative_label("L28G5-IgG4 (antibody, V domains shown, also called S1E6 light chain mutant L28G5) VH: EVQLVESGGGLVQPGGSLRLSCAVSGFTFSSYAMSWVRQAPGKGLEWVSSITGGGGGIYYADSVKGRFTISRDNSKNTVYLQMNSLRAEDTAVYYCAKDRISITIRPRYFGLDFWGQGTTVTVSS VL: DIVMTQSPLSLPVTPGEPASISCRSSRNVIYGNGYNYLDWYLQKSGQSPQLLIYLGNNVAAGVPDRFSGSGSGTDFTLKISRVEAEDVGFYYCMQSLQAPYTFGQGTKLEIKR")
"T"
>>> qualitative_label("S1E6-IgG4 (antibody, V domains shown, also called monoclonal antibody S1E6) VH: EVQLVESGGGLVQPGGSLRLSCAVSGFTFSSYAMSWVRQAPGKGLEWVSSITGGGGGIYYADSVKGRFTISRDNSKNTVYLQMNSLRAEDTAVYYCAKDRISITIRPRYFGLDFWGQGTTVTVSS VL: DIVMTQSPLSLPVTPGEPASISCRSSRSVLYGNGYNYLDWYLQKSGQSPQLLIYLGTNVAAGVPDRFSGSGSGTDFTLKISRVEAEDVGFYYCMQSLRTPYTFGQGTKLEIKR")
"F"
>>> qualitative_label("L28F8-IgG4 (antibody, V domains shown, also called S1E6 light chain mutant L28F8) VH: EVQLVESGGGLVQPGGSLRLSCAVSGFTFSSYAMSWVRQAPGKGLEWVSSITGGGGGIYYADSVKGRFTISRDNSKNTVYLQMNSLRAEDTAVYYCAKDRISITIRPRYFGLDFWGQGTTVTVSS VL: DIVMTQSPLSLPVTPGEPASISCRSSQNVVYGNGYNYLDWYLQKSGQSPQLLIYLGTNVAAGVPDRFSGSGSGTDFTLKISRVEAEDVGFYYCMQSLQAPYTFGQGTKLEIKR")
"T"
>>> qualitative_label("L18D7-IgG4 (antibody, V domains shown, also called S1E6 light chain mutant L18D7) VH: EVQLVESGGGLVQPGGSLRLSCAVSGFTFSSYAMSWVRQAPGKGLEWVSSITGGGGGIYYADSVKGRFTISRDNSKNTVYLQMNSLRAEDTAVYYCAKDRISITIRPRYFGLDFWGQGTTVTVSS VL: DIVMTQSPLSLPVTPGEPASISCRSSQSLLYSIGYNYLDWYLQKSGQSPQLLIYLGSNRASGVPDRFSGSGSGTDFTLKISRVEAEDVGFYYCMQSFKAPYTFGQGTKLEIKR")
"T"
